Reference source for all entries: paper PMC4917206

// reported FP binding score, percentage inhibition of tracer peptide binding, 4h for each item listed
# Assay target: HLA-A*0201 (Homo sapiens, UniProt P04439, D140Y/D185E/D98H/E176V/E277Q/G131W/G231S/I119V/I121R/I166T/I218V/L300P/L318F/N151K/N90K/P208A/P217A/Q86G/Q94H/R138H/R169H/T345S)
# Construct: Soluble MHC was dissolved in PBS containing 0.5 mg/ml bovine γ-globulin; made in house
# Assay type: binding
Measured quantity: FP binding score, percentage inhibition of tracer peptide binding, 4h (%)

{"Substance": "[3-THI][2-AOC]YSDFHFI [F102]", "Units text": "%", "Measurement": 92}
{"Substance": "[3-PYRA]MYSDFHFI [F100]", "Units text": "%", "Measurement": 79}
{"Substance": "[2-AOC]MYSDFHFI [F95]", "Units text": "%", "Measurement": 82}
{"Substance": "[am-phg]MLSTVLG[2-AOC] [N11]", "Units text": "%", "Measurement": 90}
{"Substance": "F[2-AOC]YSDFHF[CHA] [F48]", "Units text": "%", "Measurement": 93}
{"Substance": "FMYSDFHF[HPG] [F63]", "Units text": "%", "Measurement": 81}
{"Substance": "[THR-BZL]MYSDFHFI [F142]", "Units text": "%", "Measurement": 80}
{"Substance": "[am-phg]MYSDFHFI [F111]", "Units text": "%", "Measurement": 75}
{"Substance": "F[2-AOC]YSDFHF[NLE] [F69]", "Units text": "%", "Measurement": 90}
{"Substance": "[am-phg][NVA]YSDFHFI [F193]", "Units text": "%", "Measurement": 85}
{"Substance": "[SOME][2-AOC]LSTVLGV [N92]", "Units text": "%", "Measurement": 84}
{"Substance": "[am-phg]MLSTVLGV [N46]", "Units text": "%", "Measurement": 80}
{"Substance": "[SOME]MLSTVLGV [N61]", "Units text": "%", "Measurement": 62}
{"Substance": "[4-FPHE][2-AOC]LSTVLGV [N95]", "Units text": "%", "Measurement": 92}
{"Substance": "FMYSDFHF[CHA] [F49]", "Units text": "%", "Measurement": 88}
{"Substance": "FMYSDFHF[CSET] [F54]", "Units text": "%", "Measurement": 82}
{"Substance": "GILGFV[BUTGLY]TL [G20]", "Units text": "%", "Measurement": 82}
{"Substance": "FMYSDFHF[CpALA] [F52]", "Units text": "%", "Measurement": 81}
{"Substance": "NMLSTVLGV [NWT, reference compound]", "Units text": "%", "Measurement": 53}
{"Substance": "[THR-BZL]MLSTVLGV [N176]", "Units text": "%", "Measurement": 73}
{"Substance": "[am-phg]MYSDFHF[2-AOC] [F7]", "Units text": "%", "Measurement": 91}
{"Substance": "[OM-HS][2-AOC]LSTVLGV [N91]", "Units text": "%", "Measurement": 91}
{"Substance": "[NVA]MLSTVLG[2-AOC] [N15]", "Units text": "%", "Measurement": 71}
{"Substance": "F[2-AOC]YSDFHFI [F143]", "Units text": "%", "Measurement": 93}
{"Substance": "[BCA][2-AOC]YSDFHFI [F112]", "Units text": "%", "Measurement": 92}
{"Substance": "F[2-AOC]LSTVLGV [N177]", "Units text": "%", "Measurement": 90}
{"Substance": "NM[2-AOC]STVLGV [N41]", "Units text": "%", "Measurement": 78}
{"Substance": "[CSME][2-AOC]LSTVLGV [N169]", "Units text": "%", "Measurement": 89}
{"Substance": "[3-PYRA]MLSTVLG[2-AOC] [N8]", "Units text": "%", "Measurement": 85}
{"Substance": "[CSET][2-AOC]YSDFHFI [F118]", "Units text": "%", "Measurement": 95}
{"Substance": "[am-phg][CpALA]LGFVFTL [G27]", "Units text": "%", "Measurement": 92}
